Biological target: T1, MRP-8/14 heterodimer (untagged MRP-8 premixed 1:1 with His-tagged MRP-14) (human | , UniProt P06702;P05109)
T1 sequence 1: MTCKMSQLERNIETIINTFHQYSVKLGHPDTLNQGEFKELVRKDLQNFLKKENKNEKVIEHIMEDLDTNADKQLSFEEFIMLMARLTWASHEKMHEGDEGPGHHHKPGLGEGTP
T1 sequence 2: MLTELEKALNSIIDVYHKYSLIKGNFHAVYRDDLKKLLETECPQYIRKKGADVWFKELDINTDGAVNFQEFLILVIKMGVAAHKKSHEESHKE
Test: SPR
MEASURED ENDPOINT: Kd
Write the numeric value and follow it with the unit.

Exercise: Entry ACNSVHQHHCGGGS [MTP6 synthetic peptide with GGGS spacer] has what Kd?
Key: 57.6 µM
